# study_system: Cytochrome P450 1A2 (Homo sapiens)
# method_notes: Cytochrome panel assay with activity outcomes
# experimental_context: recombinant CYP, pro-luciferin dealkylation, luminescence, p450-cyp1a2; series mostly up to 57.1 µM
The whole screen tested about 16,000 compounds, of which about 5,700 (36%) were called active. Another 24% or so got no clear call; they are omitted. Calls follow the shape of the dose curve; as a rule, active = well fitted curve in the direction sought with a large enough effect; inconclusive = small, poorly fitted or top-dose-only effect, or effect the other way; inactive = no such curve, though single readings can be large or run the other way. The list shows a part of the results.
Form entry, call: pick from yes (active), no (inactive)

1) COc1cccc(-c2ccc3ncnc(NCc4cnc(C)cn4)c3c2)c1 ... yes

Enquiry: Dear all, I need the recorded test outcome for O=c1[nH]ncn2cccc12 , thank you.
Return: no

Enquiry: Can you look up the reported call for CCc1ccccc1NC(=S)NCc1ccc2c(c1)OCO2 for me?
Return: yes

Enquiry: Which outcome was assigned to COc1cccc(N=c2oc3c(C)ncc(CO)c3cc2C(N)=O)c1 in this test?
Return: yes

Enquiry: Per the records of this test, what outcome belongs to CCc1c(C(=O)NCc2ccc3c(c2)OCO3)[nH]c(C)c1C(C)=O ?
Return: yes

====

# study_system: Cytochrome P450 1A2 (Homo sapiens) (UniProt P05177)
# Sequence (P05177 whole entry, looked up): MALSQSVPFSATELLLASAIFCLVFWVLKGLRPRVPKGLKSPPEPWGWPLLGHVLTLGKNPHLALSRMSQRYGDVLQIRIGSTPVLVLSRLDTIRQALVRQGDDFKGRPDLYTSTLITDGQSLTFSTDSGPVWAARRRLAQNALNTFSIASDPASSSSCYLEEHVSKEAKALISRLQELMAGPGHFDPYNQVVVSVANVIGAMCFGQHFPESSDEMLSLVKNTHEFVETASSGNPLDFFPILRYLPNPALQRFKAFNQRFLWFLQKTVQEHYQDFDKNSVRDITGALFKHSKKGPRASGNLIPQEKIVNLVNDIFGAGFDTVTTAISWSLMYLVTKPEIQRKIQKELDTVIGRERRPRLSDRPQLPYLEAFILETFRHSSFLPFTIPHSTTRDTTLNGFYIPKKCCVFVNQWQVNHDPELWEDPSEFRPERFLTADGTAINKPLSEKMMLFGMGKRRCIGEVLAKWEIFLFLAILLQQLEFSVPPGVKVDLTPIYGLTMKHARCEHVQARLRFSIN
# method_notes: Cytochrome panel assay with activity outcomes
# experimental_context: recombinant CYP, pro-luciferin dealkylation, luminescence, p450-cyp1a2; series mostly up to 57.1 µM
Hit rate of the full screen: of about 16,000 compounds, about 5,700 (36%) were called active. Inconclusive results (about 24%) are left out. This is one part of the list.
measured_quantity: AC50

1) O=C(NNC(=O)C1CCN(S(=O)(=O)c2ccc(Cl)cc2)CC1)c1ccc(Cl)cc1 ... inactive
2) O=C(O)c1ccc2c3c1cccc3c(=O)n1c3ccccc3nc21 ... 15.8 µM (active)
3) CC(C)NNC(=O)c1ccncc1 ... inactive
4) O=S(=O)(NCc1cc(-c2ccc(Cl)cc2)no1)c1ccc(Cl)cc1 ... 8.91 µM (active)
5) Cc1ccccc1-c1nccc(NCCN2CCOCC2)n1 ... 5.01 µM (active)
6) Cc1nn(C(C)C(=O)Nc2sc3c(c2C#N)CCCC3)c(C)c1[N+](=O)[O-] (centres undefined) ... 3.55 µM (active)
7) CCCn1nnnc1-c1cc(Cl)cc(Cl)c1 ... 2.82 µM (active)
8) Nc1cc(-c2nn[nH]n2)ccc1F ... inactive
9) Cc1cccc(C)c1OC[C@@H](N)C(C)C ... 12.6 µM (active)
10) N=C(N)SCc1nc(-c2ccc(Cl)cc2)no1 ... 1.26 µM (active)

Enquiry: Data request, read-out AC50, for CC(C)CC(c1nnnn1C(C)C)N1CCN(c2ccccc2)CC1 (centres undefined)
Return: inactive

Enquiry: Need AC50 of CC12CCC(C(=O)Nc3ncc([N+](=O)[O-])s3)(OC1=O)C2(C)C (centres undefined) , thanks.
Return: inactive

Enquiry: So what does the record say about AC50 for Cc1ccc(-c2csc(C(C#N)=C3CCCC3)n2)cc1 ?
Return: 3.55 µM (active)

====

# study_system: Cytochrome P450 1A2 (Homo sapiens)
# method_notes: Cytochrome panel assay with activity outcomes
# experimental_context: recombinant CYP, pro-luciferin dealkylation, luminescence, p450-cyp1a2; series mostly up to 57.1 µM
The campaign covered roughly 16,000 compounds. About 5,700 (36%) were called active. Inconclusive results (about 24%) are left out. This is one part of the list.
measured_quantity: AC50

Worked examples, 5 molecules total:
1. CN(C)c1ccc(-c2nccc(NCc3ccccc3)n2)cc1 ... 1.26 µM (active)
2. Cc1ccc(Nc2nc(-c3c(C)nc4ncccn34)cs2)cc1 ... 3.16 µM (active)
3. CCOC(=O)N1CCN(C(=O)c2cnc3n(c2=O)CCS3)CC1 ... inactive
4. CCCNC(=O)Cn1cnc2sc(C(=O)Nc3ccc4c(c3)OCO4)c(C)c2c1=O ... inactive
5. CC(C)(C)C(=O)NC(Nc1cccc2cccnc12)C(Cl)(Cl)Cl (stereo not given) ... 20 µM (active)

Enquiry: Data request, read-out AC50, for Cc1cnc(CNc2cc(-c3ccc(C(=O)N(C)C)cc3)ncn2)cn1
Return: inactive

Enquiry: // lookup AC50 for O=C(O)CCC(=O)N1CCC[C@H]1C(=O)O
Return: inactive

Enquiry: # AC50 lookup, item CN(C)c1ccc(-c2cc(NCc3ccccc3)ncn2)cc1
Return: 1 µM (active)

Enquiry: Find the recorded AC50 belonging to Cc1cccc(CNc2cc(-c3ccc(N(C)C)cc3)ncn2)c1 and report it.
Return: 1 µM (active)

Enquiry: Bench note: what AC50 did O=C(CCCN1CC=C(n2c(=O)[nH]c3ccccc32)CC1)c1ccc(F)cc1 show?
Return: inactive

src = PubChem BioAssay AID1851
